meta.source: patent US20160108123A1

Biological target: T1, human PD-L1 expressed on 300.19 cells (human, UniProt Q9NZQ7 19-290)
T1 construct: whole, on cells; also called huPD-L1; PD-L1-expressing 300.19 cells
T1 sequence (Q9NZQ7 19-290): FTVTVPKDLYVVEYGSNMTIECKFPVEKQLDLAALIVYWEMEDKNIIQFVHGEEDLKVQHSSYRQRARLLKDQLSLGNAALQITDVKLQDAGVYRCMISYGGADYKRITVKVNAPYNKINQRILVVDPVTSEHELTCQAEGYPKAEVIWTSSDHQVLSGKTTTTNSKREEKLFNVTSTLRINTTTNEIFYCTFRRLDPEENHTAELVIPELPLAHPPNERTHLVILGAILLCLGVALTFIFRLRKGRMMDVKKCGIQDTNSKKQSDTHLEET
Experiment: semi-quantitative ranking in the binding studies (4th column, p-1058; FACS data, p-1056); high number = poorer binder; the column's head says only 'Rank'
Kindly supply the reported Rank values for the records listed here.

Query: Recorded Rank for BAP058-hum10 (antibody, human IgG4 S228P, kappa, V domains shown, Humanized IgG4(S228P)/human kappa mAb expressed in CHO cells) VH: QITLKESGPTLVKPTQTLTLTCTFSGYTFTSYWMYWVRQAPGKGLEWVSRIDPNSGSTKYNEKFKNRVTITADKSTSTAYMELSSLRSEDTAVYYCARDYRKGLYAMDYWGQGTTVTVSS VL: DVVMTQSPLSLPVTLGQPASISCKASQDVGTAVAWYQQKPGQAPRLLIYWASTRHTGVPSRFSGSGSGTEFTLTISSLQPDDFATYYCQQYNSYPLTFGQGTKVEIKR , please?
Result: 4

Query: Also need BAP058-hum01 (antibody, human IgG4 S228P, kappa, V domains shown, Humanized IgG4(S228P)/human kappa mAb expressed in CHO cells) VH: QVQLVQSGAEVKKPGASVKVSCKASGYTFTSYWMYWVRQATGQGLEWMGRIDPNSGSTKYNEKFKNRFTISRDDSKNTAYLQMNSLKTEDTAVYYCARDYRKGLYAMDYWGQGTTVTVSS VL: DIVMTQTPLSLPVTPGEPASISCKASQDVGTAVAWYLQKPGQSPQLLIYWASTRHTGIPARFSGSGSGTEFTLTISSLQSEDFAVYYCQQYNSYPLTFGQGTKVEIKR , thanks.
Result: 17

Query: Also need BAP058-hum13 (antibody, human IgG4 S228P, kappa, V domains shown, Humanized IgG4(S228P)/human kappa mAb expressed in CHO cells) VH: EVQLVQSGAEVKKPGATVKISCKVSGYTFTSYWMYWVRQARGQRLEWIGRIDPNSGSTKYNEKFKNRFTISRDNSKNTLYLQMNSLRAEDTAVYYCARDYRKGLYAMDYWGQGTTVTVSS VL: AIQLTQSPSSLSASVGDRVTITCKASQDVGTAVAWYLQKPGQSPQLLIYWASTRHTGVPSRFSGSGSGTDFTFTISSLEAEDAATYYCQQYNSYPLTFGQGTKVEIKR , thanks.
Result: 2
